# subjectOfTest: purified wild type MGL (wt-MGLL 6H-11-313) (Homo sapiens, UniProt Q99685)
# Sequence (Q99685 whole entry): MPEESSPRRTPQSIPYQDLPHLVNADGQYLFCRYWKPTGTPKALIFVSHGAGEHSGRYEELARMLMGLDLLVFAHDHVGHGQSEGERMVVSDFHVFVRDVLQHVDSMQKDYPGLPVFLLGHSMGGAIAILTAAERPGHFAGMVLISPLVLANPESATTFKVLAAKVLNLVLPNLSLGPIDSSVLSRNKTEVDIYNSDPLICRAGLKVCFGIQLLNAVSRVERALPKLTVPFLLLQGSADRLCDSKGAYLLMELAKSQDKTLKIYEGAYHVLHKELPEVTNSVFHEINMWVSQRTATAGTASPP
Each entry belongs to exactly one class, chosen by where its IC50 falls: low group = under 70 nM, middle group = from 70 nM up to 600 nM, high group = 600 nM and over

Reference set (8 entries):
O=C(c1ccc2c(-c3ccccc3)c[nH]c2c1)N1CC(N2CCN(C(=O)c3nccs3)CC2)C1 [Cpd 1316]; low group
O=C(c1nccs1)N1CCN(C2CN(C(=O)c3sc4c(F)c(C(F)(F)F)ccc4c3Cl)C2)CC1 [Cpd 650]; low group
Cc1nc2cc(C(=O)N3CC(N4CCN(C(=O)c5cscn5)CC4)C3)ccc2n1-c1ccccc1 [Cpd 1296]; high group
O=C(c1ccc(-c2cccc(C(F)(F)F)c2)cc1)N1CC(N2CCN(C(=O)c3ccc[nH]3)CC2)C1 [Cpd 1325]; low group
COc1cccc2c(C)c(C(=O)N3CC(N4CCN(C(=O)c5nccs5)CC4)C3)[nH]c12 [Cpd 760]; middle group
O=C(c1cc(-c2ccccc2)cc(C(F)(F)F)c1)N1CC(N2CCN(C(=O)c3nccs3)CC2)C1 [Cpd 1144]; low group
O=C(c1ccc2c(ccn2-c2ccc(F)c(F)c2)c1)N1CC(N2CCN(C(=O)c3ccc[nH]3)CC2)C1 [Cpd 1366]; low group
O=C(c1ccc2c(ccn2-c2ccc(C(F)(F)F)nc2)c1)N1CC(N2CCN(C(=O)c3ccc[nH]3)CC2)C1 [Cpd 1062]; low group

Ask | Textbook exercise: identify the category of the compound given here, O=C(c1ccccc1)N1CCN(C2CN(C(=O)c3ccc4c(ccn4-c4ccc(F)cn4)c3)C2)CC1 [Cpd 596] , according to its measured value.
Reply | middle group

Ask | Textbook exercise: identify the category of the compound given here, Cc1cc(C(=O)N2CC(N3CCN(C(=O)c4nccs4)CC3)C2)sc1-c1ccc(F)cc1 [Cpd 1353] , according to its measured value.
Reply | low group

Ask | Textbook exercise: identify the category of the compound given here, O=C(c1ccc(-n2cnc3ccccc32)cc1)N1CC(N2CCN(C(=O)c3cscn3)CC2)C1 [Cpd 1293] , according to its measured value.
Reply | high group

Ask | Textbook exercise: identify the category of the compound given here, O=C(c1ccc2c(ccn2-c2ccccn2)c1)N1CC(N2CCN(C(=O)c3nccs3)CC2)C1 [Cpd 1135] , according to its measured value.
Reply | low group

Ask | Textbook exercise: identify the category of the compound given here, O=C(c1ccc2nc(-c3ccccc3)sc2c1)N1CC(N2CCN(C(=O)c3cscn3)CC2)C1 [Cpd 1187] , according to its measured value.
Reply | middle group

Ask | Textbook exercise: identify the category of the compound given here, O=C(c1cc(-c2ccc(F)cc2)cs1)N1CC(N2CCN(C(=O)c3nccs3)CC2)C1 [Cpd 1157] , according to its measured value.
Reply | low group
